Where do the numbers come from? From ChEMBL document CHEMBL1140747.

experimentSummary: Oral bioavailability in mouse
Assay type: ADME, organism-based
conditionDescription: in vivo
quantityName: bioavailability (%)

>>> value("Cl.N[C@@H](CC(=O)N1CCn2c(nnc2C(F)(F)F)[C@H]1Cc1ccc(F)cc1)Cc1cc(F)c(F)cc1F (mixture of isomers)")
6

* * *

experimentSummary: Plasma clearance in dog at 1 mg/kg, iv and 2 mg/kg, po
Format: ADME, organism-based, Canis lupus familiaris
quantityName: clearance (mL/min/kg)

>>> value("C[C@@H]1c2nnc(C(F)(F)F)n2CCN1C(=O)C[C@H](N)Cc1cc(F)c(F)cc1F.Cl")
7.8

* * *

Item-by-item account of IC50
targetEntity: Dipeptidyl peptidase 9 (Homo sapiens, UniProt Q86TI2)
Sequence (Q86TI2 whole entry): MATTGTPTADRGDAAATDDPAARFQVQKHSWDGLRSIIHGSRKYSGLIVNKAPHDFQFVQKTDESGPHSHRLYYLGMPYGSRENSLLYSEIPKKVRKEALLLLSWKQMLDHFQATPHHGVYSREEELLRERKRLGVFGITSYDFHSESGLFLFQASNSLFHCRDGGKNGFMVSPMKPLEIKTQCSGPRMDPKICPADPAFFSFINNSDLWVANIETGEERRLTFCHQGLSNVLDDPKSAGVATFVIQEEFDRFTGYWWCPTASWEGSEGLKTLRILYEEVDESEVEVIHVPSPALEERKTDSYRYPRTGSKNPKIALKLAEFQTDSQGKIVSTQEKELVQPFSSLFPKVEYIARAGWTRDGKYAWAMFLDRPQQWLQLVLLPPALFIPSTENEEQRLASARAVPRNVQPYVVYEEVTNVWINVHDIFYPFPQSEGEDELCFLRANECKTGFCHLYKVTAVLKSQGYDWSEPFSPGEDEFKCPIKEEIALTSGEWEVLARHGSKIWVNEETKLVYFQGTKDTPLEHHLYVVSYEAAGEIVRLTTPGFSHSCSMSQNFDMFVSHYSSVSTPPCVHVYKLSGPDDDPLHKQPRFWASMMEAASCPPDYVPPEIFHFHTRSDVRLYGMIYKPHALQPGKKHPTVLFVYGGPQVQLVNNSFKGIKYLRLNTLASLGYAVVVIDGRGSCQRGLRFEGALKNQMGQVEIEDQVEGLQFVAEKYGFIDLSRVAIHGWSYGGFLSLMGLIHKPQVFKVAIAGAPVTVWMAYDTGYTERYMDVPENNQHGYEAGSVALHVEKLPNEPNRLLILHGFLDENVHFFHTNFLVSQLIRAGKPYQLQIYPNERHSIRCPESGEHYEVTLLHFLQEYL
quantityName: IC50

>>> value("Cl.N[C@@H](CC(=O)N1CCn2c(nnc2C(F)(F)F)C1Cc1ccccn1)Cc1cc(F)c(F)cc1F (stereo in doubt; 49b)")
"> 100 µM"
>>> value("C[C@H]1c2nnc(C(F)(F)F)n2[C@@H](C)CN1C(=O)C[C@H](N)Cc1cc(F)c(F)cc1F")
"> 100 µM"
>>> value("COc1ccc(CC2c3nnc(C(F)(F)F)n3CCN2C(=O)C[C@H](N)Cc2cc(F)c(F)cc2F)cc1 (stereo in doubt; 43a)")
"> 100 µM"
>>> value("CC1c2nnc(C(F)(F)F)n2C(C)CN1C(=O)C[C@H](N)Cc1cc(F)c(F)cc1F (stereo in doubt; 16a)")
"> 100 µM"
